# key: entry, value: MIC Streptococcus pneumoniae (ATCC 6301)
- Tested on: Streptococcus sp.
- assay: In vitro antibacterial evaluation: minimum inhibitory concentration (MIC), broth dilution method
- Assay type: cell-based
- reported.conditions: Streptococcus pneumoniae (ATCC 6301); 18 hours at 35° C.
- Source text: […]
Note: unit µg/mL is implicit; provide only the numeric part.

Known MIC Streptococcus pneumoniae (ATCC 6301) results, listed for orientation:
{"compound": "CC(c1ccccc1)C1NC(=O)CNC(=O)C(CO)NC(=O)C(C(O)C2CN(Cc3ccc(C(F)(F)F)cc3)C(=N)N2C2OC(CO)C(O)C(O)C2O)NC(=O)C(C(O)C2CNC(=N)N2)NC(=O)C(Cc2ccc(OC3OC(CO)C(OC4OC5COC6(OC5C(O)C4O)C4CC5CC(C4)CC6C5)C(O)C3O)cc2)NC1=O (stereo not shown) [Example 226]", "measure.unit": "µg/mL", "MIC Streptococcus pneumoniae (ATCC 6301)": 4}
{"compound": "CC(c1ccccc1)C1NC(=O)CNC(=O)C(CO)NC(=O)C(CC2CNC(=N)N2C2OC(CO)C(O)C(O)C2O)NC(=O)C(CC2CNC(=N)N2)NC(=O)C(Cc2ccc(OC3OC(CO)C(OC4OC5COC(c6ccc(OCc7ccccc7)cc6)OC5C(O)C4O)C(O)C3O)cc2)NC1=O (stereo not shown) [Example 191]", "measure.unit": "µg/mL", "MIC Streptococcus pneumoniae (ATCC 6301)": 1}

Would you kindly look at the next entry?
**Query** Give its MIC Streptococcus pneumoniae (ATCC 6301) value. Item: CC(c1ccccc1)C1NC(=O)CNC(=O)C(CO)NC(=O)C(C(O)C2CNC(=N)N2C2OC(CO)C(O)C(O)C2O)NC(=O)C(C(O)C2CNC(=N)N2)NC(=O)C(Cc2ccc(OC3OC(CO)C(OC4OC(COCc5cccs5)C(O)C(O)C4O)C(O)C3O)cc2)NC1=O (stereo not shown) [Example 244]
**Result** 1

###

- Tested on: Enterococcus sp.
- assay: In vitro antibacterial evaluation: minimum inhibitory concentration (MIC), broth dilution method
- Format: cell-based
- reported.conditions: Enterococcus faecalis (GC 4553); 18 hours at 35° C.
Entries and their MIC Enterococcus faecalis (GC 4553)
Record the value in mg/L, omitting the unit from your answer.

// known answers, use as guide
{"molecule": "N=C1NCC(C(O)C2NC(=O)C(CC3CCC(OC4OC(CO)C(OC5OC6COC7(OC6C(O)C5O)C5CC6CC(C5)CC7C6)C(O)C4O)CC3)NC(=O)C(CC3CCCCC3)NC(=O)CNC(=O)C(CO)NC(=O)C(C(O)C3CNC(=N)N3C3OC(CO)C(O)C(O)C3O)NC2=O)N1 (stereo not shown)", "quantity": "MIC Enterococcus faecalis (GC 4553)", "observed.value": 64}
{"molecule": "CCCC(C)C1OCC2OC(OC3C(CO)OC(Oc4ccc(CC5NC(=O)C(C(C)c6ccc(Cl)cc6)NC(=O)CNC(=O)C(CO)NC(=O)C(C(O)C6CNC(=N)N6C6OC(CO)C(O)C(O)C6O)NC(=O)C(C(O)C6CNC(=N)N6)NC5=O)cc4)C(O)C3O)C(O)C(O)C2O1 (stereo not shown)", "quantity": "MIC Enterococcus faecalis (GC 4553)", "observed.value": 2}
{"molecule": "COc1ccc2cc(COCC3OC(OC4C(CO)OC(Oc5ccc(CC6NC(=O)C(C(C)c7ccccc7)NC(=O)CNC(=O)C(CO)NC(=O)C(CC7CNC(=N)N7C7OC(CO)C(O)C(O)C7O)NC(=O)C(CC7CNC(=N)N7)NC6=O)cc5)C(O)C4O)C(O)C(O)C3O)ccc2c1 (stereo not shown)", "quantity": "MIC Enterococcus faecalis (GC 4553)", "observed.value": 16}

**Query** If you can, please state the reported MIC Enterococcus faecalis (GC 4553) value of Cc1ccc(Oc2cccc(C3OCC4OC(OC5C(CO)OC(Oc6ccc(CC7NC(=O)C(C(C)c8ccccc8)NC(=O)CNC(=O)C(CO)NC(=O)C(C(O)C8CNC(=N)N8C8OC(CO)C(O)C(O)C8O)NC(=O)C(C(O)C8CNC(=N)N8)NC7=O)cc6I)C(O)C5O)C(O)C(O)C4O3)c2)cc1 (stereo not shown) .
**Result** 64
